# SYSTEM_NAME: T1, B-Raf kinase, P15056
# T1 chain: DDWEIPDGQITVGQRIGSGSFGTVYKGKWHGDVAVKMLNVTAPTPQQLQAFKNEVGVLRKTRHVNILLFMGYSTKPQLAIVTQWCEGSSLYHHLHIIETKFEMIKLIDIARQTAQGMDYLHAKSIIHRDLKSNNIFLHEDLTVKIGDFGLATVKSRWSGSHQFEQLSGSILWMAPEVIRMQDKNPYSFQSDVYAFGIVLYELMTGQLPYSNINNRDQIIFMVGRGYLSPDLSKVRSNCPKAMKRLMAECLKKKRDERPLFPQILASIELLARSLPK
# PROTOCOL: intrinsic fluorescence titration (ITF) of B-Raf in solution
OBSERVABLE: pKd
Kindly note that pKd refers to -log10 of the concentration in mol/L and answer with the value alone.

# count of solved cases: 3
GVLRKTRHVNILLFMG (modifications not checked) [SEQ ID NO: 15 (503-518, …)]
5.73
VLRKTRHVNILLFAG (modifications not checked) [SEQ ID NO: 30 (504-518 M517A, …)]
6.27
VLRKTRHVNALLFMG (modifications not checked) [SEQ ID NO: 27 (504-518 I513A, …)]
5.57

Which pKd is listed for GVLRKTRHVNIALFMGYST (modifications not checked) [SEQ ID NO: 11 (503-521 L514A, …)] ?
5.01

Which pKd is listed for GRINKGRHTFLLVVMTYSL (modifications not checked) [SEQ ID NO: 3 (scrambled, …)] ?
5.53

Which pKd is listed for VLRKTAHVNILLFMG (modifications not checked) [SEQ ID NO: 24 (504-518 R509A, …)] ?
5.62

Which pKd is listed for GVARKTRHVNILLFMGYST (modifications not checked) [SEQ ID NO: 4 (503-521 L505A, …)] ?
5.41

Which pKd is listed for GVLRKDRHVNILLFMGYST (modifications not checked) [SEQ ID NO: 7 (503-521 T508D, …)] ?
5.66

Which pKd is listed for LLKTRHVNILLFMG (modifications not checked) [SEQ ID NO: 32 (505-518 R506L, …)] ?
6.26

Which pKd is listed for VLRKTRHVNIALFMG (modifications not checked) [SEQ ID NO: 28 (504-518 L514A, …)] ?
5.99

// provenance: patent US20220127585A1
